- Assayed target: human Claudin18.2 (CLDN18.2) (human, UniProt P56856 1-261)
- Experiment description: cell-based or functional assay

Binder	Display unit	IC50 of indirect ADC cytotoxicity
chAb25 (antibody, V domains shown) VH: EAQLQQSGPELVKPGASVKIFCKASGYTFTDYYINWVKQSHGKSLEWIGDINPNNGGTTYNQKFKGKATLTVDKSSSTASMELRRLTSEDSSVYYCARRDAMDYWGQGTSVTVSS VL: DIVMTQSQKFMSTTVGDRVSITCTASQNVGPAVAWYQQKPGQSPKLLIYSASRRFTGVPDRFTGSGSGTVFTLTINNVQSEDLADYFCQQYISYPLTFGAGTKLELK	pM	860
chAb05 (antibody, V domains shown) VH: DVKLVESGEDLVKPGGSLKLSCAASGFTFSNYAMSWVRQTPEKRLEWVAYVSSGGDYIYYADTVKGRFIISRDNARNTLYLQMNSLRSEDTAMYYCARVYFGNSLDYWGQGTTLTVSS VL: DIVMTQSPSSLTVTAGEKVTLSCKSSQSLLNGGNQKNYLTWYQQRPGQPPKLLIYWASTRESGVPDRFTGSGSGTDFTLIISSVQAEDLAVYYCQNDYYYPWTFGGGTKLEIK	pM	990
chAb15 (antibody, V domains shown) VH: EVMLVESGGDLVKPGGSLKLSCAASGFTFSTYTMSWVRQTPEKRLEWVATIVGGGGYTYYLDSVKGRFTISRDNAKNTLYLQMISLRSEDTALYYCARMGLTQRNALDYWGQGTSITVSS VL: DIVMTQSPSSLSVSEGEKVTLNCKSSQSLFNSGNQKNYLAWYQQKPGQPPKLLIYGASTRESGVPDRFTGSGFGTDFTLTISSVQAEDLAVYYCQNDHTYPLTFGAGAKLELK	pM	380
